- Tested system: Short transient receptor potential channel 4 (Mus musculus)
- Method: blockers of DAMGO-evoked TRPC4 calcium flux – cell-based, Fluo4, HEK293 TRPC4beta/mu-opioid, confirmation (AID 2636)
- Assay context: at 10 µM
The source made the active and inactive calls.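 How the source made its calls: active means calcium signal cut by more than 3 SD below the full-agonist control yet still positive, in both repeats and the earlier primary screen; inactive means the rest.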
Log the outcome using a class from Yes for active, No for inactive

Some solved entries appear below for comparison.
[[record]]
compound = "OCCN(CCO)c1ncnc2c1sc1nc(N3CCOCC3)c3c(c12)CCCC3"
assigned_label = "No"

[[record]]
compound = "CCOC(=O)C1(Cc2ccccc2)CCN(Cc2cn[nH]c2-c2ccccc2)CC1"
assigned_label = "No"

[[record]]
compound = "CCCCOc1ccc(CSCCN=C(N)N)cc1"
assigned_label = "Yes"


## Task For CNCC(=O)N1CCN(c2ncc(C(F)(F)F)cc2Cl)CC1 , what call appears in the results of this test?
## Result No

## Task For COCCn1c(SCc2cc(C(C)=O)ccc2OC)nc2cc(Cl)ccc2c1=O , what call appears in the results of this test?
## Result Yes

## Task For CCCOc1ccc(-c2nc(SCc3ccccc3)[nH]c(=O)c2C#N)cc1OC , what call appears in the results of this test?
## Result Yes

## Task For O=C(O)c1cc(NN=C2c3ccccc3-c3ccccc32)ccc1Cl , what call appears in the results of this test?
## Result Yes

## Task For CCOCCCn1c(=S)[nH]c2cc(C(=O)NCCCN(CC)CC)ccc2c1=O , what call appears in the results of this test?
## Result No

## Task For O=C(O)CN1C(c2ccccc2O)Nc2ccc(Br)cc2C1c1ccccc1 (configuration not stated) , what call appears in the results of this test?
## Result Yes

## Task For Cc1ccc2c(c1)N(C(=O)CCC(=O)Nc1ccccc1Br)CC(C)O2 (configuration not stated) , what call appears in the results of this test?
## Result Yes

## Task For CC1CC(C)CN(CCCNC(=O)C2CCCN(c3ncnc4c3nc3n4CCCCC3)C2)C1 (configuration not stated) , what call appears in the results of this test?
## Result No

## Task For CCOC(=O)C1(Cc2cccc(OC)c2)CCN(Cc2cccc(O)c2)CC1 , what call appears in the results of this test?
## Result Yes

## Task For CCN(CCCNC(=O)CCCOc1cc(=O)n(C)c2ccccc12)Cc1ccccc1 , what call appears in the results of this test?
## Result No

## Task For OCCNc1nc(NCc2ccccc2)c2ccccc2n1 , what call appears in the results of this test?
## Result Yes

## Task For O=C(c1ccccc1)c1coc2ccc(O)c(CN3CCOCC3)c12 , what call appears in the results of this test?
## Result No

## Task For COCC1CCN(Cc2cn(-c3ccccc3F)nc2-c2cc(C)sc2C)CC1 , what call appears in the results of this test?
## Result No

## Task For CNC(=O)COc1ccc2oc3c(c2c1)CCCC3 , what call appears in the results of this test?
## Result Yes

## Task For OC(CNCC1CCCO1)Cn1c2ccc(Br)cc2c2cc(Br)ccc21 (configuration not stated) , what call appears in the results of this test?
## Result No

## Task For Cc1cccc(Cn2c(N3CCN(c4ccccc4)CC3)nc3c2c(=O)n(C)c(=O)n3C)c1 , what call appears in the results of this test?
## Result No

## Task For CCCn1ncc(CN2CCC(n3nccc3NC(=O)CCc3ccccc3)CC2)c1C , what call appears in the results of this test?
## Result No

## Task For COc1ccccc1N(C(=O)c1snc(C(N)=O)c1N)C(C(=O)NCc1ccccc1)c1ccc(C)o1 (configuration not stated) , what call appears in the results of this test?
## Result No

## Task For O=C(Nc1ccnn1C1CCN(Cc2cc3ccccc3[nH]2)CC1)C1CCOC1 (configuration not stated) , what call appears in the results of this test?
## Result No
